# PROTOCOL_NOTES: Peptide stability in serum
# Format: in vitro ADME
# PARTICULARS: 25% (vol/vol) bovine calf serum, 6 hr; read-out: Serum stability (residual peptide)
Where no end group is shown, it is not given here.
EXPERIMENTAL_ENDPOINT: remaining at 6 h (%)
Record the value in %, omitting the unit from your answer.

query: Report remaining at 6 h for KKKKRRKKWRKWLKWLAKK-NH2 [SEQ ID NO: 7, KKKK-RR-KK-WRK-WLK-WLA-KK-NH2] please.
result: 54.4

====

# Test system: Hepa I-6 (Murine hepatocellular carcinoma)
# PROTOCOL_NOTES: MTT cytotoxicity, Hepa 1-6
# Type: cell-based
# PARTICULARS: Hepa I-6, 24 hours incubation
Where no end group is shown, it is not given here.
EXPERIMENTAL_ENDPOINT: pIC50
Please express pIC50 as -log10 of the molar concentration.

The examples below pair each entry with its known result.
KKKKRRKKWLKWLKWLKKK-NH2 [SEQ ID NO: 4, KKKK-RR-KK-WLK-WLK-WLK-KK-NH2]: 4.98
KKKKKKKKWRKWLKWLAKK-NH2 [SEQ ID NO: 1, KKKK-KK-KK-WRK-WLK-WLA-KK-NH2]: 4.88

Okay, now this substance:
query: What measured pIC50 goes with KKKKRRKKWRKWLKWLAKK-NH2 [SEQ ID NO: 7, KKKK-RR-KK-WRK-WLK-WLA-KK-NH2] ?
result: 5.31

====

# PROTOCOL_NOTES: Peptide stability in serum
# Format: in vitro ADME
# PARTICULARS: 25% (vol/vol) bovine calf serum, 0.5 hr; read-out: Serum stability (residual peptide)
Where no end group is shown, it is not given here.
EXPERIMENTAL_ENDPOINT: remaining at 0.5 h (%)
Please respond with the number in % and leave the unit unwritten.

query: Would you kindly share the measured remaining at 0.5 h for KKKKRRKKWRKWLKWLAKK-NH2 [SEQ ID NO: 7, KKKK-RR-KK-WRK-WLK-WLA-KK-NH2] ?
result: 101

====

# PROTOCOL_NOTES: Peptide stability in serum
# Format: in vitro ADME
# PARTICULARS: 25% (vol/vol) bovine calf serum, at the fourth hour; read-out: Decrease of peptide in serum
Where no end group is shown, it is not given here.
EXPERIMENTAL_ENDPOINT: metabolised at 4 h

query: Which metabolised at 4 h value belongs to KKKKRRKKWRKWLKWLAKK-NH2 [SEQ ID NO: 7, KKKK-RR-KK-WRK-WLK-WLA-KK-NH2] ?
result: ~40%

====

# PROTOCOL_NOTES: Peptide stability in serum
# Type: in vitro ADME
# PARTICULARS: 25% (vol/vol) bovine calf serum, after eight hours; read-out: Decrease of peptide in serum
Where no end group is shown, it is not given here.
EXPERIMENTAL_ENDPOINT: metabolised at 8 h

query: What does the record list as metabolised at 8 h for KKKKRRKKWRKWLKWLAKK-NH2 [SEQ ID NO: 7, KKKK-RR-KK-WRK-WLK-WLA-KK-NH2] ?
result: ~56%

====

# PROTOCOL_NOTES: Peptide stability in serum
# Assay type: in vitro ADME
# PARTICULARS: 25% (vol/vol) bovine calf serum, 2 hr; read-out: Serum stability (residual peptide)
Where no end group is shown, it is not given here.
EXPERIMENTAL_ENDPOINT: remaining at 2 h (%)
Give your result in % as a bare value.

query: Which measured remaining at 2 h value corresponds to KKKKRRKKWRKWLKWLAKK-NH2 [SEQ ID NO: 7, KKKK-RR-KK-WRK-WLK-WLA-KK-NH2] ?
result: 72.1

====

# PROTOCOL_NOTES: Peptide stability in serum
# Assay type: in vitro ADME
# PARTICULARS: 25% (vol/vol) bovine calf serum, 8 hr; read-out: Serum stability (residual peptide)
Where no end group is shown, it is not given here.
EXPERIMENTAL_ENDPOINT: remaining at 8 h
Remember to quote the unit after the number.

query: So what does the record say about remaining at 8 h for KKKKRRKKWRKWLKWLAKK-NH2 [SEQ ID NO: 7, KKKK-RR-KK-WRK-WLK-WLA-KK-NH2] ?
result: 44.4%

====

# System: OECM-1 (Human oral cancer cell)
# PROTOCOL_NOTES: MTT cytotoxicity, OECM-1
# Assay type: cell-based
# PARTICULARS: OECM-1, 24 hours incubation
Where no end group is shown, it is not given here.
Listed below: IC50 values for each entry.
State just the number; it will be interpreted in µM.

The examples below pair each entry with its known result.
KKKKRRKKWRKWLKWLAKK-NH2 [SEQ ID NO: 7, KKKK-RR-KK-WRK-WLK-WLA-KK-NH2]: 10.2
KKKKKKKKWRKWLKWLAKK-NH2 [SEQ ID NO: 1, KKKK-KK-KK-WRK-WLK-WLA-KK-NH2]: 18.8

query: Can you look up the measured IC50 of KKKKRRKKWLKWLKWLKKK-NH2 [SEQ ID NO: 4, KKKK-RR-KK-WLK-WLK-WLK-KK-NH2] for me?
result: 18

Measured values drawn from patent US20250250298A1 for this set.
